Every entry's value here was drawn from ChEMBL document CHEMBL5653628.

assayed_target: Tyrosine-protein kinase JAK3 (Homo sapiens)
Sequence (P52333 whole entry): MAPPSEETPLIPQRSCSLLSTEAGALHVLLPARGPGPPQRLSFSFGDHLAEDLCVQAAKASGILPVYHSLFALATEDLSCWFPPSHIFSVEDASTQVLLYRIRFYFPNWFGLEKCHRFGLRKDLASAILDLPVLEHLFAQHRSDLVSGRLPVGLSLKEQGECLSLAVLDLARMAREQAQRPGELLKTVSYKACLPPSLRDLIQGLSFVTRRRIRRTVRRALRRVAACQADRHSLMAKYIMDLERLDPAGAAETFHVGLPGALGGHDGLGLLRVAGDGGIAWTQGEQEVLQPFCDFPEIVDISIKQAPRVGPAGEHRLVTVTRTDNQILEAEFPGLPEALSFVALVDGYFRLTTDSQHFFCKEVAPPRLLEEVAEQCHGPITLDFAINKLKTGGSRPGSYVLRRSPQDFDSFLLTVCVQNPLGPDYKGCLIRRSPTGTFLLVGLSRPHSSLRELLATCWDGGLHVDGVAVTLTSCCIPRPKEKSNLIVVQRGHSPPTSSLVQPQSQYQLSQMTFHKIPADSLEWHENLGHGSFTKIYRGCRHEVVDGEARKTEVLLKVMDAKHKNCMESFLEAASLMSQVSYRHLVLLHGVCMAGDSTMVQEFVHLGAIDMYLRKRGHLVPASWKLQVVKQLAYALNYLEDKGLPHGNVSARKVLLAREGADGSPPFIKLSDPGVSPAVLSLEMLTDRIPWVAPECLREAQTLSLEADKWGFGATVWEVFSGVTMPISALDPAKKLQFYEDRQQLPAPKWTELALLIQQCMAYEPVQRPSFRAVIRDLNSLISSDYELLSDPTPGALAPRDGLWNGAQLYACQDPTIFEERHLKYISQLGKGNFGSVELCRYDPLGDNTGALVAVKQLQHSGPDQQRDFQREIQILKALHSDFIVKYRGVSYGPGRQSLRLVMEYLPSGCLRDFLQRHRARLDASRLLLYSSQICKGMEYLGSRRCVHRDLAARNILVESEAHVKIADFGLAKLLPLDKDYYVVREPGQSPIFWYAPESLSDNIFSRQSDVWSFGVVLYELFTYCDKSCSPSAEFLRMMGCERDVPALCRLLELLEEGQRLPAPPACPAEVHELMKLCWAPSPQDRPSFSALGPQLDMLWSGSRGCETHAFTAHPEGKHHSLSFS
measurement_name: IC50 (nM)

Example cases with answers are listed next.
Q) Name the recorded IC50 of the molecule listed here: "C=CC(=O)Nc1ccc2ncn(-c3cncc(Nc4ccccc4)n3)c2c1"
A) 20

Q) Supply recorded IC50 for "C=CC(=O)Nc1nc2cnc3[nH]ccc3c2n1C" here.
A) 3

A: CN(C)C/C=C/C(=O)Nc1nc2cnc3[nH]ccc3c2n1C
B: Cn1c(=O)n([C@@H]2CC[C@@H](O)c3ccccc32)c2cc(-n3cnc4ccc(C#N)cc43)ccc21
Q) So which one has the bigger IC50 here, A or B ? Label of pick, please.
A) A

###

assayed_target: Proto-oncogene tyrosine-protein kinase receptor Ret (Homo sapiens)
Sequence (P07949 whole entry): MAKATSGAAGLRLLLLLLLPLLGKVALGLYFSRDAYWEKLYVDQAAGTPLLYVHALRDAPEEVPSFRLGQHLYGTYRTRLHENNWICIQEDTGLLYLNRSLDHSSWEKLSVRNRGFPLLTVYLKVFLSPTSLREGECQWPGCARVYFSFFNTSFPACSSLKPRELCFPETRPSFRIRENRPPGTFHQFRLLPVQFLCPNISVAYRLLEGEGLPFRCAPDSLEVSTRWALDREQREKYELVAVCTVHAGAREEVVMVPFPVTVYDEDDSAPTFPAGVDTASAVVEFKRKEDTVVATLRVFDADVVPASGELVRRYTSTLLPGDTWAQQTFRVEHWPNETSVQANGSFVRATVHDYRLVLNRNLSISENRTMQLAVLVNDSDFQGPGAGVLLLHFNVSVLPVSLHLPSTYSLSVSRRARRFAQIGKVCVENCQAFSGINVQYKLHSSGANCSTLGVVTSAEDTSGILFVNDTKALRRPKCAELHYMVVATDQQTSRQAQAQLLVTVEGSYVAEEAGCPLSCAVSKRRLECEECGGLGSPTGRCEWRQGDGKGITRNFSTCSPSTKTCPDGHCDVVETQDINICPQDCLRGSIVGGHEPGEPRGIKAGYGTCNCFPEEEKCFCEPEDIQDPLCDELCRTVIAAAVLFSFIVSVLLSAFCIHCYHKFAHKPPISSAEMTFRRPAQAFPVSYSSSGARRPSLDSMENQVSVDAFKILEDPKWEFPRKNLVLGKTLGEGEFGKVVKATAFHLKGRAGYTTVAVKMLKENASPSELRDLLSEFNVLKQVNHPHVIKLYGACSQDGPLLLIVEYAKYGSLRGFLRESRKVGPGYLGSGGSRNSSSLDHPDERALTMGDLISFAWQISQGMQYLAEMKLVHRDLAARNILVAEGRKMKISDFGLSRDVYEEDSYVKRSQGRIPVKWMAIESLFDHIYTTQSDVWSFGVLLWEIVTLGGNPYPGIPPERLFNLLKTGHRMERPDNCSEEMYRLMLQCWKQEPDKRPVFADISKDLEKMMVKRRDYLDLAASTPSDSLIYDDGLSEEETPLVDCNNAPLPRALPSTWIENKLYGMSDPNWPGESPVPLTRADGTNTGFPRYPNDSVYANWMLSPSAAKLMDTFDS
measurement_name: pIC50
# pIC50: negative log10 of molar concentration; output just the value

Q) Quick one: give measured pIC50 for "C=CC(=O)Nc1nc2cnc3[nH]ccc3c2n1C"
A) 5.11

###

assayed_target: Vascular endothelial growth factor receptor 1 (Homo sapiens, UniProt P17948)
Sequence (P17948 whole entry): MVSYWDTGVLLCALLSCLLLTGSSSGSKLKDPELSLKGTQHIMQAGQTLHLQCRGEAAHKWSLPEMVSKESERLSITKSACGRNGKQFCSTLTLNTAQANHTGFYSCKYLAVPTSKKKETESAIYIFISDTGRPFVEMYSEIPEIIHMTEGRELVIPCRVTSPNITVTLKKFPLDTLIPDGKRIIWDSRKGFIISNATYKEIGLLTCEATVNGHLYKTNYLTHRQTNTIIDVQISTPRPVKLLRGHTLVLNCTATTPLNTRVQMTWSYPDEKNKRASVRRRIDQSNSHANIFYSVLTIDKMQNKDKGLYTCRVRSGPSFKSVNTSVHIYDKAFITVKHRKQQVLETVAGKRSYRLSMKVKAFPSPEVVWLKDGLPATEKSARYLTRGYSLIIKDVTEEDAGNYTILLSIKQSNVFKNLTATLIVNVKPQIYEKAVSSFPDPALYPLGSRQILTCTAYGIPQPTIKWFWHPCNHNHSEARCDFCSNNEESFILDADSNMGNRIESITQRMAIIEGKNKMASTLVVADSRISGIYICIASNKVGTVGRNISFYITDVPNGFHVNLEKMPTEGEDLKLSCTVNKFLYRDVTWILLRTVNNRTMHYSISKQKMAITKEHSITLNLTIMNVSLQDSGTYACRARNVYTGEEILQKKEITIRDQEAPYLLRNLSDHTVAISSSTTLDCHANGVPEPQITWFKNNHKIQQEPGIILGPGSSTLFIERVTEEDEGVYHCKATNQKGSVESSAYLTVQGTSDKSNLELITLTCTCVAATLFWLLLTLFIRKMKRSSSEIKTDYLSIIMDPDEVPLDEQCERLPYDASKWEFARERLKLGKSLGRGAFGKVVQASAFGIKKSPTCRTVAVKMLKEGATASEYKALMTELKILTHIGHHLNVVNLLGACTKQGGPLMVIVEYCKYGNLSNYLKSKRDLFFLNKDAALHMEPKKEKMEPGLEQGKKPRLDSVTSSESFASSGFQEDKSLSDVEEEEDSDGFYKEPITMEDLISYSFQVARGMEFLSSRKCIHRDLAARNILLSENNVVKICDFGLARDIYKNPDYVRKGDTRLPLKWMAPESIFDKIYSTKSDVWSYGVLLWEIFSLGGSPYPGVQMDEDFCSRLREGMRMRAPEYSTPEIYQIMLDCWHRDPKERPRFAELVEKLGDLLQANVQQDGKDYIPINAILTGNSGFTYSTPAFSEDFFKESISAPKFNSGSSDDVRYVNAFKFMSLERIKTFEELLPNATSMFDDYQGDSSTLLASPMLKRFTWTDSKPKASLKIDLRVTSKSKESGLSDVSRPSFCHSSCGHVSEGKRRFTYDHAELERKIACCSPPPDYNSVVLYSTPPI
measurement_name: pIC50
pIC50 field: float, defined as -log10 of concentration (mol/L).

Q) Retrieve pIC50 on Vascular endothelial growth factor receptor 1 (Homo sapiens, UniProt P17948); query "C=CC(=O)Nc1ccc2ncn(-c3cncc(Nc4ccccc4)n3)c2c1"
A) 6.26

###

assayed_target: Epidermal growth factor receptor (Homo sapiens, UniProt P00533)
Sequence (P00533 whole entry): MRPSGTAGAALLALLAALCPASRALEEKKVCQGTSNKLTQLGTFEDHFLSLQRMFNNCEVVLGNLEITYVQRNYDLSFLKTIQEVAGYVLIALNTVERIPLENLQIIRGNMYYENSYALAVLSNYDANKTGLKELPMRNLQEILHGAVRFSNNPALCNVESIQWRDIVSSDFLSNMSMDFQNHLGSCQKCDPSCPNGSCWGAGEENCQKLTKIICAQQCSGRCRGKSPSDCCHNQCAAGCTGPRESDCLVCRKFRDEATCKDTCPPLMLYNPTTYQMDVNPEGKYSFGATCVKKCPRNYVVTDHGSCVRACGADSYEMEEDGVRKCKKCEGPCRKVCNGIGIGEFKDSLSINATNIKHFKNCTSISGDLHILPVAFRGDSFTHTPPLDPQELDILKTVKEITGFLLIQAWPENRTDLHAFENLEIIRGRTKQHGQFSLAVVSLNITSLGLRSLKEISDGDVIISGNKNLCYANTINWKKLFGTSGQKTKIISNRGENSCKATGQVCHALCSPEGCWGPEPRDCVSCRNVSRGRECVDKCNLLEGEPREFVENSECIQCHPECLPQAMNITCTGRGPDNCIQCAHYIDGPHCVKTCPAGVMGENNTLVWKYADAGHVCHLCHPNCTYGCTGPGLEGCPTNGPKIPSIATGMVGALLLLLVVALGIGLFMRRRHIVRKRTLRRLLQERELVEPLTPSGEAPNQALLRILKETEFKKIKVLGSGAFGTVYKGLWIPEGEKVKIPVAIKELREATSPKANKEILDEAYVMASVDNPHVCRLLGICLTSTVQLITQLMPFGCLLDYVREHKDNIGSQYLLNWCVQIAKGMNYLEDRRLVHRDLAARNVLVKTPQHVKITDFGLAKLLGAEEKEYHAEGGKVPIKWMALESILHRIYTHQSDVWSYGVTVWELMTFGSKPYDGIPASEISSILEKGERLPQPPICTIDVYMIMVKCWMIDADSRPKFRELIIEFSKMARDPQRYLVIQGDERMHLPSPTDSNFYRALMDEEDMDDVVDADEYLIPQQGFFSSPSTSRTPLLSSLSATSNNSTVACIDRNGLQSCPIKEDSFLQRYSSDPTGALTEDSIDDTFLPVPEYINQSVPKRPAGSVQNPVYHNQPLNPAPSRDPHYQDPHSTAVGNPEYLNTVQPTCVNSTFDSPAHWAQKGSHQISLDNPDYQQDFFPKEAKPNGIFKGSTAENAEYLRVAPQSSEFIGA
measurement_name: IC50

Q) Look up and report IC50, with Epidermal growth factor receptor (Homo sapiens, UniProt P00533) as system, for "N#C/C(=C\c1cccc(-c2cccc3[nH]ncc23)c1)C(N)=O"
A) > 10 µM

###

assayed_target: Tyrosine-protein kinase TXK (Homo sapiens, UniProt P42681)
Sequence (P42681 whole entry): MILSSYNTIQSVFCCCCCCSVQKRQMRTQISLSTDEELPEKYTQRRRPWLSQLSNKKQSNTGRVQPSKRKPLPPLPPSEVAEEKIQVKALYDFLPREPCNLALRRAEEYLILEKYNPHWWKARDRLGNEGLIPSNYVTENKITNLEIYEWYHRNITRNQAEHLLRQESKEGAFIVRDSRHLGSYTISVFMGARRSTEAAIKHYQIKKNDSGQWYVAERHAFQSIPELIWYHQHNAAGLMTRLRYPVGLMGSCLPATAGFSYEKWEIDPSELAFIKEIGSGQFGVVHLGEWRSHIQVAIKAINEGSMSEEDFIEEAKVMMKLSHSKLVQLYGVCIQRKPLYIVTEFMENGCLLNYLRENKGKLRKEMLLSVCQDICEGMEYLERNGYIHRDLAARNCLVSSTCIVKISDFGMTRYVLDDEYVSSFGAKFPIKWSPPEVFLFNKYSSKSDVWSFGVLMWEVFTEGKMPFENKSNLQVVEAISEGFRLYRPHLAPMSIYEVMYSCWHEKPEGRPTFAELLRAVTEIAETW
measurement_name: pIC50
Formally, pIC50 is defined as -log10 of the concentration c, with c in mol/L.

Q) Tell me pIC50 reported for "N#C/C(=C\c1cccc(-c2cccc3[nH]ncc23)c1)C(N)=O"
A) 5.78

###

assayed_target: Mitogen-activated protein kinase kinase kinase kinase 2 (Homo sapiens)
Sequence (Q12851 whole entry): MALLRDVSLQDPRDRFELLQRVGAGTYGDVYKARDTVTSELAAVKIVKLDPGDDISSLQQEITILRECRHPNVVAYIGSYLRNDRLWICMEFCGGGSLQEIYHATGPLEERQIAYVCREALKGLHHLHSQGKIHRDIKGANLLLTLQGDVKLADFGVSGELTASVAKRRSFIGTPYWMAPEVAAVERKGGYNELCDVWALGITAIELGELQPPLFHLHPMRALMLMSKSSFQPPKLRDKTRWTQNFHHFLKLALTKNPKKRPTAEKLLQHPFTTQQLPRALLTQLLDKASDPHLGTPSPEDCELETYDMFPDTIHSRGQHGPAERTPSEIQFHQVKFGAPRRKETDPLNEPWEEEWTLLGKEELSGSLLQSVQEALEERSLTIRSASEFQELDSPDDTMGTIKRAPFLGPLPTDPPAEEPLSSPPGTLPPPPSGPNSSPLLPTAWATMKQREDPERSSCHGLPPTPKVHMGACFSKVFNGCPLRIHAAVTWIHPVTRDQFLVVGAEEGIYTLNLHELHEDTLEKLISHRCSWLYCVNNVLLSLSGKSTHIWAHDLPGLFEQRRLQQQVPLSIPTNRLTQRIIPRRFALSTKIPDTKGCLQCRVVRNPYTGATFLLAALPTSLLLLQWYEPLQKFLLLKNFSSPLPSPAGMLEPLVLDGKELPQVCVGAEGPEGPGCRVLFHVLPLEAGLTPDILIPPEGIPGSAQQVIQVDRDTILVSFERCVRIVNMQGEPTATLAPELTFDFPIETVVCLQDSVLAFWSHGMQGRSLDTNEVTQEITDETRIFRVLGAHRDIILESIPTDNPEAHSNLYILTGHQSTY
assay: Inhibition of MAP4K2 (unknown origin) by trFRET binding assay
measurement_name: IC50 (µM)
Supply the numeric figure in µM, leaving out any unit text.

Q) Enter measured IC50, system Mitogen-activated protein kinase kinase kinase kinase 2 (Homo sapiens), for the compound shown: "C=CC(=O)Nc1nc2cnc3[nH]ccc3c2n1C"
A) 7.4

###

Entries below carry reported pIC50 on Tyrosine-protein kinase Fyn (Homo sapiens).
Sequence (P06241 whole entry): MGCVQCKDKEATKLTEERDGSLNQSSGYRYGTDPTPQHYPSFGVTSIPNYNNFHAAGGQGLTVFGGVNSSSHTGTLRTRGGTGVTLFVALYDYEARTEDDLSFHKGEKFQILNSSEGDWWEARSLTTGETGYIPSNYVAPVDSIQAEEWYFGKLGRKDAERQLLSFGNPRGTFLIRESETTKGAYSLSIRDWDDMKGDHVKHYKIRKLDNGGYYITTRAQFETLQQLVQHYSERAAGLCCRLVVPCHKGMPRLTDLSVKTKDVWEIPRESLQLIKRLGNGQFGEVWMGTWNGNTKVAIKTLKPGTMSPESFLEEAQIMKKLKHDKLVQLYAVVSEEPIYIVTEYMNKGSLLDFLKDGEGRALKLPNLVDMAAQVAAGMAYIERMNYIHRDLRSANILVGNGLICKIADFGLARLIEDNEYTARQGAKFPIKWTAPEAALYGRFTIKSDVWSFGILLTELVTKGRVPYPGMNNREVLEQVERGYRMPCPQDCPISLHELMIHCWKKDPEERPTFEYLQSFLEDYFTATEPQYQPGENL
pIC50: −log10 of the molar value.
measurement_name: pIC50

Q) In one line, give reported pIC50 of the entry "C=CC(=O)Nc1ccc2ncn(-c3cncc(Nc4ccccc4)n3)c2c1" .
A) 6.18

Q) Report pIC50, nothing else, for this compound: CN(C)C(=O)C(C#N)=Cc1ccc(-c2nc3cnc4[nH]ccc4c3n2C2CCCCC2)o1 (mixture of isomers)
A) 6.18

###

assayed_target: Glycogen synthase kinase-3 beta (Homo sapiens, UniProt P49841)
pIC50: −log10 of the molar value.
measurement_name: pIC50

Q) Provide pIC50 value for the following compound: "CC(C)(O)C(=O)N1CCN(c2ccc(C(F)(F)F)c(C3=C(c4c[nH]c5ccccc45)C(=O)NC3=O)c2)CC1"
A) > 6.00
